B1: TEKT4 (parent)
chain: SEVEELNMSLTALREKLLEAEQSL

Variants of: B1
Test: protein stability index of a GFP-peptide fusion (GPS, HEK-293T) (PSI 1-6); higher = more stable;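 note: lentivirally expressed fusions sorted by FACS into six bins by GFP to DsRed ratio, PSI derived from sequencing read proportions per bin multiplied by bin number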
Details: c terminus: a fixed tail appended
Below: a set of entries, each annotated with reported protein stability index.
MEASURE_NAME: protein stability index

E21N | 3.34
E4W | 1.68
A20F | 3.79
S23T | 2.77
E4A | 1.86
L24P | 4.99
R14Y | 2.46
V3I | 3.16
Q22K | 3.36
A12I | 2.36
M8F | 3.02
L6S | 3.71
S1R | 2.19
T11P | 3.31
L18T | 4.54
A20I | 3.55
K16I | 2.92
T11H | 2.5
S9F | 2.28
L17S | 4.9
A12C | 2.15
A20N | 4.52
